Field: Activity. Provide a value for each of the compounds that follow.
- Species: Homo sapiens
- Assay text: Inhibition of human BuChE D70G/Y332A mutant assessed as dissociation constant for Michaelis complex formation by enzyme kinetic study
Answer format: value, then unit.

Would you kindly share the measured Activity for O=C(NCc1ccccc1)O[C@H]1CO[C@H]2[C@@H]1OC[C@H]2OC(=O)c1ccccc1 ? 6.4 µM

Same question, O=C(NCc1ccccc1)O[C@H]1CO[C@H]2[C@@H]1OC[C@H]2OC(=O)c1ccccc1O this time 0.445 µM

Same question, CCCCNC(=O)O[C@H]1CO[C@H]2[C@@H]1OC[C@H]2OC(=O)c1ccccc1 this time 5.3 µM

Same question, CCNC(=O)O[C@H]1CO[C@H]2[C@@H]1OC[C@H]2OC(=O)c1ccccc1O this time 2.26 µM

====

Field: inhibition. Provide a value for each of the compounds that follow.
- Subject of test: UniProt O42275
- Sequence (O42275 24-633 limits assumed): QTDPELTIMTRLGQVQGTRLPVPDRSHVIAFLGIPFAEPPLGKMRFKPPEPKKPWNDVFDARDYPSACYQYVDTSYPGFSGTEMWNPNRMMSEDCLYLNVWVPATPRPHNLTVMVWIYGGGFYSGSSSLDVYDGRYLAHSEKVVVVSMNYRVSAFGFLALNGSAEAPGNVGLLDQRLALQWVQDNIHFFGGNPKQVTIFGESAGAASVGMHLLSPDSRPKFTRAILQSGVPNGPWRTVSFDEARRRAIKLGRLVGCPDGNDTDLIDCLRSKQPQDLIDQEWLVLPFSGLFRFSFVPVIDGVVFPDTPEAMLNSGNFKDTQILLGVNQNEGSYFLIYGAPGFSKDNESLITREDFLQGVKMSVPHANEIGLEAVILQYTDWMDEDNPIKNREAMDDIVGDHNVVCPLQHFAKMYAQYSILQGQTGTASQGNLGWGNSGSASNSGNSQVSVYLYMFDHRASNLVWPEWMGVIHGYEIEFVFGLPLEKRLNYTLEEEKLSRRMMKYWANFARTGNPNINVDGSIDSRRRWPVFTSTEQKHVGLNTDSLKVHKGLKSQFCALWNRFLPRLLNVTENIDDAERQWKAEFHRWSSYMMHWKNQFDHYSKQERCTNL
- Assay text: Inhibition of electric eel AChE type 6S at 100 uM
Please reply with the bare figure in % and do not write the unit itself.

Would you kindly share the measured inhibition for O=C(O[C@@H]1CO[C@H]2[C@@H]1OC[C@@H]2OC(=O)N1CCOCC1)c1ccccc1O ? 12

Same question, Nc1ccccc1C(=O)O[C@@H]1CO[C@H]2[C@@H]1OC[C@@H]2OC(=O)NCc1ccccc1 this time 0

Same question, O=C(NCc1ccccc1)O[C@H]1CO[C@H]2[C@@H]1OC[C@H]2OC(=O)c1ccccc1[N+](=O)[O-] this time 0

Same question, O=C(NCc1ccccc1)O[C@H]1CO[C@H]2[C@@H]1OC[C@H]2OC(=O)c1ccc([N+](=O)[O-])cc1 this time 27

Same question, CCNC(=O)O[C@H]1CO[C@H]2[C@@H]1OC[C@H]2OC(=O)c1ccccc1O this time 16

Same question, Nc1ccc(C(=O)O[C@@H]2CO[C@H]3[C@@H]2OC[C@@H]3OC(=O)NCc2ccccc2)cc1 this time 33

Same question, Cc1ccccc1C(=O)O[C@@H]1CO[C@H]2[C@@H]1OC[C@@H]2OC(=O)NCc1ccccc1 this time 26

Same question, O=C(NCc1ccccc1)O[C@H]1CO[C@H]2[C@@H]1OC[C@H]2OC(=O)c1ccc(O)cc1 this time 0

====

- Assay text: Selectivity for human BuChe over electric eel AChE type 6S
Field: Ratio. Provide a value for each of the compounds that follow.

Would you kindly share the measured Ratio for O=C(NCc1ccccc1)O[C@H]1CO[C@H]2[C@@H]1OC[C@H]2OC(=O)c1ccc([N+](=O)[O-])cc1 ? > 854

Same question, Nc1ccccc1C(=O)O[C@@H]1CO[C@H]2[C@@H]1OC[C@@H]2OC(=O)NCc1ccccc1 this time > 3700

Same question, O=C(NCc1ccccc1)O[C@H]1CO[C@H]2[C@@H]1OC[C@H]2OC(=O)c1ccccc1O this time > 660000

Same question, Nc1cccc(C(=O)O[C@@H]2CO[C@H]3[C@@H]2OC[C@@H]3OC(=O)NCc2ccccc2)c1 this time > 1170

====

Field: IC50. Provide a value for each of the compounds that follow.
- Subject of test: Cholinesterase (Homo sapiens, UniProt P06276)
- Sequence (P06276 whole entry): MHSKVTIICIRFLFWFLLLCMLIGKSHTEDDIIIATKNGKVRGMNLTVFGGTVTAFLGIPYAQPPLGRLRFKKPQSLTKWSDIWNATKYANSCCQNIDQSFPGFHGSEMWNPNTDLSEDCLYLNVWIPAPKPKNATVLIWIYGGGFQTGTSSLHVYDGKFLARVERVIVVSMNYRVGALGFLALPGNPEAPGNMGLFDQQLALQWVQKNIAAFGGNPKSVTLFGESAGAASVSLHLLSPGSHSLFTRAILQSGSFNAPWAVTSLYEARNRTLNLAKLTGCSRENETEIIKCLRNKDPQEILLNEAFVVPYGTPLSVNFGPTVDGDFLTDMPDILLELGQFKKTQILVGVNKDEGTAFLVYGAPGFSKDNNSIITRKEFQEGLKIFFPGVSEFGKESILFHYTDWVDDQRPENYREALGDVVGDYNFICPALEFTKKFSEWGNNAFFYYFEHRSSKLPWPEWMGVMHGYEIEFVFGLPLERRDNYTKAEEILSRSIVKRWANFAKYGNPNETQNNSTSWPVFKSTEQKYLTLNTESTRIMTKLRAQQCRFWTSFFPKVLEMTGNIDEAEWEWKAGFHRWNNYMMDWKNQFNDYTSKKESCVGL
Please reply with the bare figure in nM and do not write the unit itself.

Would you kindly share the measured IC50 for Nc1ccc(C(=O)O[C@@H]2CO[C@H]3[C@@H]2OC[C@@H]3OC(=O)NCc2ccccc2)cc1 ? 297

Same question, CCCCNC(=O)O[C@H]1CO[C@H]2[C@@H]1OC[C@H]2OC(=O)c1ccccc1 this time 72

Same question, CCNC(=O)O[C@H]1CO[C@H]2[C@@H]1OC[C@H]2OC(=O)c1ccccc1O this time 9.6
